# test-method-notes: Half life in Sprague-Dawley rat at 1 mg/kg, iv by HPLC analysis
# Type: ADME, organism-based
# measurement-setup: in vivo
observed-property: half-life
In your response, put the unit directly after the numeric value.

[ask] For the compound shown here, CNC(=O)[C@H](C)Cn1cnc2ccc(-c3cnc(OC)c(NS(=O)(=O)c4ccc(F)cc4Cl)c3)cc2c1=O , give the reported half-life.
[reply] 1.22 h

* * *

# Organism: Homo sapiens
# test-method-notes: Selectivity ratio of IC50 for PI3Kbeta (unknown origin) using PIP2:3PS peptide as substrate preincubated for 15 mins followed by ATP addition at Km concentration and further incubated for 120 mins by ADP-Glo assay to IC50 for PI3Kalpha (unknown origin) using PIP2:3PS peptide as substrate preincubated for 15 mins followed by ATP addition at Km concentration and further incubated for 150 mins by ADP-Glo assay
observed-property: Ratio IC50
Form field (numeric): enter value without unit.

Here is how some compounds turned out for Ratio IC50.
{"columns": ["compound", "observed-property", "value-measured"],
 "data": [
  ["COc1ncc(-c2ccc3ncn(C[C@@H](C)C(N)=O)c(=O)c3c2)cc1NS(=O)(=O)c1ccc(F)cc1Cl", "Ratio IC50", 83.2],
  ["CCNC(=O)[C@H](C)Cn1cnc2ccc(-c3cnc(OC)c(NS(=O)(=O)c4ccc(F)cc4Cl)c3)cc2c1=O", "Ratio IC50", 187],
  ["CCOc1ncc(-c2ccc3ncn(C[C@@H](C)C(=O)NC)c(=O)c3c2)cc1NS(=O)(=O)c1ccc(F)cc1Cl", "Ratio IC50", 153],
  ["CCc1ncc(-c2ccc3ncn(C[C@@H](C)C(=O)NC)c(=O)c3c2)cc1NS(=O)(=O)c1ccc(F)cc1Cl", "Ratio IC50", 309],
  ["CNC(=O)[C@H](C)Cn1cnc2ccc(-c3cnc(OC)c(NS(=O)(=O)c4ccc(Cl)c(Cl)c4)c3)cc2c1=O", "Ratio IC50", 6.62]
]}

[ask] For the compound shown here, COc1ncc(-c2ccc3ncn(C[C@@H](C)C(=O)N(C)C(C)C)c(=O)c3c2)cc1NS(=O)(=O)c1ccc(F)cc1Cl , give the reported Ratio IC50.
[reply] 16.6

[ask] For the compound shown here, COc1ncc(-c2ccc3ncn(C[C@@H](C)C(=O)NC4CC4(F)F)c(=O)c3c2)cc1NS(=O)(=O)c1ccc(F)cc1Cl (stereo not given in full) , give the reported Ratio IC50.
[reply] 116

[ask] For the compound shown here, COc1ncc(-c2ccc3ncn(C[C@@H](C)C(=O)NCCO)c(=O)c3c2)cc1NS(=O)(=O)c1ccc(F)cc1Cl , give the reported Ratio IC50.
[reply] 151

[ask] For the compound shown here, COCCNC(=O)[C@H](C)Cn1cnc2ccc(-c3cnc(OC)c(NS(=O)(=O)c4ccc(F)cc4Cl)c3)cc2c1=O , give the reported Ratio IC50.
[reply] 229

[ask] For the compound shown here, COc1ncc(-c2ccc3ncn(C[C@@H](C)C(=O)NC4CC4)c(=O)c3c2)cc1NS(=O)(=O)c1ccc(F)cc1Cl , give the reported Ratio IC50.
[reply] 224

[ask] For the compound shown here, CNC(=O)[C@H](C)Cn1cnc2ccc(-c3cnc(OC)c(NS(=O)(=O)c4ccc(Cl)cc4Cl)c3)cc2c1=O , give the reported Ratio IC50.
[reply] 131

[ask] For the compound shown here, COc1ncc(-c2ccc3ncn(CC(C(N)=O)C(C)C)c(=O)c3c2)cc1NS(=O)(=O)c1ccc(F)cc1Cl (racemic) , give the reported Ratio IC50.
[reply] 32.6

[ask] For the compound shown here, CNC(=O)[C@H](C)Cn1cnc2ccc(-c3cnc(OC)c(NS(=O)(=O)c4cccc(C(F)(F)F)c4)c3)cc2c1=O , give the reported Ratio IC50.
[reply] 155

[ask] For the compound shown here, CNC(=O)[C@H](C)Cn1cnc2ccc(-c3cnc(OC)c(NS(=O)(=O)c4cccc(Cl)c4Cl)c3)cc2c1=O , give the reported Ratio IC50.
[reply] 175

[ask] For the compound shown here, COc1ncc(-c2ccc3ncn(C[C@@H](C)C(=O)NC4CCC4)c(=O)c3c2)cc1NS(=O)(=O)c1ccc(F)cc1Cl , give the reported Ratio IC50.
[reply] 186
